In this section we review reported DPP-IV inhibitory activity values for a set of molecules.
Target: DPP-IV (Homo sapiens)
Sequence (P27487 whole entry): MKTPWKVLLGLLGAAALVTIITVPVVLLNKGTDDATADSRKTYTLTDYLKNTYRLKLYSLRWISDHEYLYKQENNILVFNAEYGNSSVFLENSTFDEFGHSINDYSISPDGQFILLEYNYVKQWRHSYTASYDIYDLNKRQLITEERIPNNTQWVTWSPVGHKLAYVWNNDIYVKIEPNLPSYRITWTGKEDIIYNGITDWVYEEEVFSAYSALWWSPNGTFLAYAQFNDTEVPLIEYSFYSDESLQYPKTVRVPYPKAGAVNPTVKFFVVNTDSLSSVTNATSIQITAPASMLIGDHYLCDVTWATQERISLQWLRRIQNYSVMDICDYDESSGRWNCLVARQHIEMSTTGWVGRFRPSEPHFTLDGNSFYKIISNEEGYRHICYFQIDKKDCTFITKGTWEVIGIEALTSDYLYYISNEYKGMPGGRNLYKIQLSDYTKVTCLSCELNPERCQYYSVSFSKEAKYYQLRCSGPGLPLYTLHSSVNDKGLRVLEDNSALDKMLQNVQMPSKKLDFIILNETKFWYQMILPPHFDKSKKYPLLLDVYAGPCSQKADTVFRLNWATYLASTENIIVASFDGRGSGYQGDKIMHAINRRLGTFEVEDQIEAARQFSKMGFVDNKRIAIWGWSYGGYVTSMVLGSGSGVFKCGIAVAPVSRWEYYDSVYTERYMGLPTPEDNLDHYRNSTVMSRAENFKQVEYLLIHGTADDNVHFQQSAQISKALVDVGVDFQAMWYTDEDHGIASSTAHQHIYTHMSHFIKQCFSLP
Experiment: DPP-IV inhibitory activity of peptides (DPP-IV-Glo Protease Assay Kit); also: test concentration or dose not given here
Format: biochemical
Parameters: purchased QiZheng Biotech (Shanghai, China) IBDPP0901
Conditions: DPP-IV-Glo Protease Assay Kit; control = 0; replicate 3; sheet S2F; in % (unit assumed)
Where a SMILES comes first, the peptide text is derived from it.
# output: bare number, no unit

These solved cases illustrate the format of a correct answer.
{"columns": ["MOLECULE", "OBSERVED_MEASUREMENT"],
 "data": [
  ["C[C@H](NC(=O)[C@H](Cc1ccc(O)cc1)NC(=O)[C@H](CO)NC(=O)[C@@H](N)Cc1ccc(O)cc1)C(=O)O [YSYA] (H-YSYA-OH)", 30.8304],
  ["CC(C)[C@H](N)C(=O)N[C@@H](C)C(=O)N[C@@H](CC(=O)O)C(=O)N[C@@H](Cc1c[nH]c2ccccc12)C(=O)O [VADW] (H-VADW-OH)", 57.0946],
  ["CSCC[C@H](NC(=O)[C@H](C)NC(=O)[C@@H](N)C(C)C)C(=O)N1CCC[C@H]1C(=O)O [VAMP] (H-VAMP-OH)", 61.9665],
  ["C[C@@H](O)[C@H](NC(=O)[C@@H](N)Cc1ccc(O)cc1)C(=O)NCC(=O)N[C@@H](CC(=O)O)C(=O)O [YTGD] (H-YTGD-OH)", 21.6532],
  ["CC(C)C[C@H](NC(=O)[C@@H](N)Cc1ccccc1)C(=O)N[C@@H](CCC(N)=O)C(=O)O [FLQ] (H-Phe-Leu-Gln-OH)", 32.9911]
]}

(Q) Print DPP-IV (Homo sapiens) DPP-IV inhibitory activity for CC(C)C[C@H](NC(=O)[C@@H](N)CC(C)C)C(=O)N[C@@H](Cc1ccc(O)cc1)C(=O)O [LLY] (H-Leu-Leu-Tyr-OH) .
(A) 36.9146

(Q) Print DPP-IV (Homo sapiens) DPP-IV inhibitory activity for CSCC[C@H](NC(=O)[C@H](CC(C)C)NC(=O)[C@H](CCC(N)=O)NC(=O)[C@@H](N)Cc1ccc(O)cc1)C(=O)O [YQLM] (H-YQLM-OH) .
(A) 34.538

(Q) Print DPP-IV (Homo sapiens) DPP-IV inhibitory activity for NC(=O)CC[C@H](NC(=O)[C@@H]1CCCN1C(=O)[C@@H](N)Cc1ccccc1)C(=O)N[C@@H](CO)C(=O)O [FPQS] (H-FPQS-OH) .
(A) 34.8747

(Q) Print DPP-IV (Homo sapiens) DPP-IV inhibitory activity for CC(C)C[C@H](NC(=O)[C@H](CCC(N)=O)NC(=O)[C@@H](N)Cc1ccccc1)C(=O)O [FQL] (H-Phe-Gln-Leu-OH) .
(A) 15.9024

(Q) Print DPP-IV (Homo sapiens) DPP-IV inhibitory activity for CC(C)C[C@H](NC(=O)[C@@H](N)Cc1c[nH]c2ccccc12)C(=O)N[C@@H](CCC(=O)O)C(=O)O [WLE] (H-Trp-Leu-Glu-OH) .
(A) 17.3019
